Target: cAMP-dependent protein kinase catalytic subunit beta (Homo sapiens) + cAMP-dependent protein kinase type II-beta regulatory subunit (Homo sapiens) (UniProt P22694+P31323)
Sequence (P31323 whole entry, looked up, other chains not shown): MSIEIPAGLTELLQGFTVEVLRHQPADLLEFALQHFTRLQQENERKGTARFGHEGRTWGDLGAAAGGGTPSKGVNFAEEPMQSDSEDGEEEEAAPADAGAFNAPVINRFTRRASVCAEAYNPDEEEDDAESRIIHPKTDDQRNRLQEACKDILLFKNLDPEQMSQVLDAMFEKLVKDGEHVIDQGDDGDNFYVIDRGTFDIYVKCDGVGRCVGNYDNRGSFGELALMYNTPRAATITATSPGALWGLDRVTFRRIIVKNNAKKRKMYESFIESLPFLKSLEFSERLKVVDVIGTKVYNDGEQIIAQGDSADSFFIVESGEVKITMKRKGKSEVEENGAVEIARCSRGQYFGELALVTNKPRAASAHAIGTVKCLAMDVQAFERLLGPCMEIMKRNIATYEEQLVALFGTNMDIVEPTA
Assay: activators of PKA-R2B holoenzyme, primary screen, biochemical, fluorescence polarization, Cy5-IP20, human (AID 504700);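 also: higher means more holoenzyme dissociation and a rise in polarization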
Conditions: PKA-R2B holoenzyme dissociation, at 11.4 µM, active compounds read high, 0% DMSO only, 100% 113 µM cGMP, R2B truncated from residue 108, S112A mutant
The campaign covered roughly 340,000 compounds. About 270 (0.079%) were called active. This excerpt belongs to a sample that is enriched for actives.
measurement name: activation (%)

[[record]]
cpd_smiles = "Cc1noc(C)c1NC(=O)N(C)C[C@@H]1Oc2cc(Br)ccc2S(=O)(=O)N([C@@H](C)CO)C[C@H]1C"
unit_label = "%"
measurement = -6.5

[[record]]
cpd_smiles = "C[C@H]1CN([C@@H](C)CO)C(=O)c2cc(-c3cccc(F)c3)cnc2O[C@@H]1CN(C)S(C)(=O)=O"
unit_label = "%"
measurement = 4.49

[[record]]
cpd_smiles = "COC(=O)C[C@H]1C[C@@H]2c3cc(NC(=O)Nc4ccccc4)ccc3O[C@@H]2[C@@H](CO)O1"
unit_label = "%"
measurement = 6.99

[[record]]
cpd_smiles = "Cc1cccc(C)c1NC(=O)CNC(=O)c1ccc(N2CCOCC2)c([N+](=O)[O-])c1"
unit_label = "%"
measurement = -5.41

